Attribution: patent US20250188153A1

experimental-target: hMPV A2 F (human metapneumovirus)
experiment-notes: ELISA on coated recombinant protein, OD 405 nm
property-label: EC50 (µg/mL)
Kindly answer with a numeric value in µg/mL, unit omitted.

Recorded EC50, per entry:
# binder, property-label, recorded-result
measured = [
    ("MPV489 (antibody, V domains shown) VH: EVQLLESGGGLVQPGGSLRLSCAASKFTFNNYEMNWLRQAPGKGLEWVSSISSSGDTIHNADSVKGRFIISRDNAKNSLHLQMNGLRAEDTAVYYCARAGSGWAYDAFDIWGLGTMVTVSS VL: LSASVGDRVTITCRASQSISSFLNWYQQKPGKAPKLLMYAASSLPVGVPSRFSGSGSGPEYTLTISNLQPEDFATYYCQQGYSSPPTFGGGTRLEVK", "EC50", 9.3),
    ("MPV491 (antibody, V domains shown) VH: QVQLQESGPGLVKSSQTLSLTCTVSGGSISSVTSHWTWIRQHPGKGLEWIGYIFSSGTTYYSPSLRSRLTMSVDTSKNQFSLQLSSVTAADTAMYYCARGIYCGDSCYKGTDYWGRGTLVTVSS VL: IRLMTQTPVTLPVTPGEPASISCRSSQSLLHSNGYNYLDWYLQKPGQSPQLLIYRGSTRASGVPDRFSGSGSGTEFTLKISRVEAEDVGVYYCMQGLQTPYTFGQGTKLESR", "EC50", 2.2),
]

Alright, here's another binder for you.
Input: Param item = MPV486 (antibody, V domains shown) VH: EVQLVESGGHLVQSGGSLRLSCAASGFTFSNYILNWVRQAPGKGLEWISYITGGSSAIYYADSVKGRFTISRDDAKNSLYLQMNNLRAEDTAVYYCARSHGYDSSGYYYYFAMDVWGQGTTVTVSS VL: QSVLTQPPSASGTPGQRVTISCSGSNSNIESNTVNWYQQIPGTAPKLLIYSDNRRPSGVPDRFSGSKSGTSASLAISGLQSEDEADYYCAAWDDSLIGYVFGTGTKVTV ; retrieve measured EC50.
Output: 0.043
